procedureSummary: rescue of simvastatin-induced ATP loss – cell-based, C2C12 myotubes, ATP luminescence, cherry pick, dose response (AID 624405);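 further: myotubes are challenged with simvastatin at 10 µM to lower ATP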
protocolConditions: 48 h, scaled: DMSO wells 0, geranylgeraniol wells 100; series mostly up to 19.5 µM
Out of some 1,900 compounds screened, about 250 (13%) were called active. Another 4% or so got no clear call; they are omitted. These entries were drawn from the full list. Entries with a potency or affinity are not part of this list.
metric: outcome

smilesEntry	metric	resultValue
O=C(CN1CCN(c2ccccn2)CC1)NCCc1ccccc1	outcome	inactive
Nc1nnnn1NCc1cccc(OCc2ccccc2)c1	outcome	inactive
COc1cc(CCC(=O)OCc2nnc(-c3ccccc3)o2)cc(OC)c1OC	outcome	inactive
C[C@H]1CN([C@@H](C)CO)C(=O)c2cc(NC(=O)Cc3cn(C)c4ccccc34)ccc2O[C@@H]1CN(C)S(=O)(=O)c1cccs1	outcome	inactive
Cc1ccccc1C(=O)NCc1nnc(SCC(=O)N2CCN(c3ccccc3)CC2)n1C	outcome	inactive
COc1ccc(NC(=O)N(C)C[C@H]2Oc3c(NC(=O)Nc4cccc5ccccc45)cccc3C(=O)N([C@H](C)CO)C[C@H]2C)cc1	outcome	inactive
O=C(NCc1ccncc1)Nc1ccccc1Cl	outcome	inactive
COc1ccc(S(=O)(=O)Nc2ccc3c(c2)CC(=O)N([C@H](C)CO)C[C@H](C)[C@@H](CN(C)Cc2ccc(C(F)(F)F)cc2)O3)cc1	outcome	inactive
C[C@@H]1CCCCO[C@@H](CN(C)S(=O)(=O)c2ccc(F)cc2)[C@@H](C)CN([C@H](C)CO)C(=O)c2cc(NC(=O)Nc3cccc4ccccc34)ccc2O1	outcome	inactive

###

procedureSummary: rescue of simvastatin-induced ATP loss – cell-based, C2C12 myotubes, ATP luminescence, cherry pick, dose response (AID 624405);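 further: myotubes are challenged with simvastatin at 10 µM to lower ATP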
protocolConditions: 48 h, scaled: DMSO wells 0, geranylgeraniol wells 100; series mostly up to 19.5 µM
Out of some 1,900 compounds screened, about 250 (13%) were called active. Not shown: some 4% with an inconclusive outcome. These entries were drawn from the full list. Potency and affinity values are given separately.

molecule	outcome
Cc1[nH]nc2c1C(c1ccsc1)C(C#N)=C(N)O2 (stereo not given)	inactive
C[C@@H]1CN([C@@H](C)CO)C(=O)c2cccc(NC(=O)C3CCCCC3)c2O[C@@H]1CN(C)S(=O)(=O)c1ccc(Cl)cc1	inactive
COc1ccc(S(=O)(=O)NC(CC(=O)NCc2ccc3c(c2)OCO3)c2ccco2)cc1 (stereo not given)	inactive
COc1cc2c(N3CCOCC3)cc(O)c(CC(=O)Nc3ccccc3)c2cc1OC	inactive
COc1ccc2c(c1OC)C(=O)N(c1ccccn1)C2	inactive
O=C(Cn1nnc(-c2ccncc2)n1)N(C1CCCCC1)C1CCCCC1	inactive
CS(=O)(=O)N1CCN(c2cccc(Cl)n2)CC1	inactive
C[C@@H]1CN([C@@H](C)CO)C(=O)c2cc(NS(=O)(=O)c3cccs3)ccc2O[C@@H]1CN(C)Cc1ccc2c(c1)OCO2	inactive
COc1ccc(N=C2S/C(=C\c3cc(C)n(C)c3C)C(=O)N2CC(C)C)cc1	inactive
O=C(Oc1ccc(C(=S)N2CCOCC2)cc1Br)c1ccccc1F	inactive

###

procedureSummary: rescue of simvastatin-induced ATP loss – cell-based, C2C12 myotubes, ATP luminescence, cherry pick, dose response (AID 624405);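 further: myotubes are challenged with simvastatin at 10 µM to lower ATP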
protocolConditions: 48 h, scaled: DMSO wells 0, geranylgeraniol wells 100; series mostly up to 19.5 µM
Among all 1,900 compounds or so, about 250 (13%) were called active. Another 4% or so got no clear call; they are omitted. Only a sample is shown. Potency and affinity values are given separately.

compound	outcome
COc1ccc(S(=O)(=O)N(C)C[C@@H]2OCCCC[C@H](C)Oc3ccc(NC(=O)Nc4ccc(C(F)(F)F)cc4)cc3C(=O)N([C@@H](C)CO)C[C@@H]2C)cc1	inactive
O=C(COc1cccc(C(F)(F)F)c1)Nc1ccc(S(=O)(=O)N2CCCC2)cc1	inactive
COc1cc(NC(=O)COC(=O)c2cc(S(=O)(=O)N3CCOCC3)ccc2F)cc(OC)c1	inactive
O=C(C[C@H]1CC[C@@H](NC(=O)c2ccc3c(c2)OCO3)[C@H](CO)O1)NCc1ccc(Oc2ccccc2)cc1	inactive
Cc1ccc(-c2csc(-c3c[nH]c4ccccc34)n2)cc1	inactive
COC(=O)c1cn(CC(=O)N2C(C)CCCC2C)c2ccccc12 (stereo not given)	inactive
CCOC(=O)CC(=O)CSc1ncc(C(=O)OCC)c(N)n1	inactive
COc1ccc(CC(=O)NC(CC(=O)O)c2cccc([N+](=O)[O-])c2)cc1 (stereo not given)	inactive
CCOC(=O)C(C)C1(O)c2ccccc2-c2ncccc21 (stereo not given)	inactive
Cc1ccc(S(=O)(=O)n2nc(-c3ccco3)nc2SCc2ccccc2)cc1	inactive
O=C(c1cccs1)N1CCN(C2CCN(Cc3ccccc3)CC2)CC1	inactive
C[C@H]1CN([C@@H](C)CO)C(=O)c2cc(NS(=O)(=O)c3cccs3)ccc2O[C@H]1CN(C)Cc1ccc(Cl)c(Cl)c1	inactive
O=C(Cn1cnc2c(nnn2Cc2ccc(F)cc2)c1=O)NC1CCCC1	inactive
O=S(=O)(NC1=NCCC1)c1ccc(F)cc1	inactive
Cc1cccn2c(=O)c3cc(C(=O)NCCC4=CCCCC4)n(C)c3nc12	inactive
S=C(NCc1ccc(Cl)cc1)Nc1ccccc1	inactive
CC(C)NC(=O)N1[C@@H](C#N)[C@H](c2ccc(-c3ccc(F)cc3)cc2)[C@@H]1CO	inactive
CCc1ccc(N2CC(C(=O)NC3=NCCS3)CC2=O)cc1 (stereo not given)	inactive
CCCn1c2c(c(O)c(C(=O)NC)c1=O)CCCC2	inactive
C[C@@H]1CCCCO[C@@H](CN(C)C(=O)Nc2cccc3ccccc23)[C@H](C)CN([C@@H](C)CO)C(=O)c2cc(NS(=O)(=O)c3ccc(Cl)cc3)ccc2O1	inactive
COc1ccc2oc(=O)cc(CN3CCN(Cc4ccc(OC)c(OC)c4OC)CC3)c2c1	inactive
Cc1sc2nc3ccc(N4CCCCC4)nn3c(=O)c2c1C	inactive
Cc1occc1-c1nnc(SCC(=O)c2ccc(Cl)cc2)n1CC1CCCO1 (stereo not given)	inactive
O=C(C[C@@H]1CC[C@H]2[C@@H](COC[C@@H](O)CN2Cc2ccc(Oc3ccccc3)cc2)O1)Nc1nccs1	inactive
O=CN1CCC(=O)N(Cc2ccccc2)c2ccccc21	inactive
COc1ccc(Cn2nnnc2C(c2ccccc2OC)N2CCC(C(N)=O)CC2)cc1 (stereo not given)	inactive
O=C(C[C@H]1CC[C@H]2[C@@H](COC[C@H](O)CN2Cc2ccc(Oc3ccccc3)cc2)O1)N1CCCCC1	inactive
COc1ccc(-c2noc(CCCC(=O)NCCc3ccccc3)n2)cc1OC	inactive
COc1cc(S(=O)(=O)N2CCN(C(=O)c3ccccc3F)CC2)c(OC)cc1NC(C)=O	inactive
COc1ccc(CN2CCN(C(=O)c3cccs3)CC2)cc1Br	inactive
COc1ccc(S(=O)(=O)Nc2ccccc2C(=O)NC(C)(C)C)cc1OC	inactive
N#C[C@H]1[C@H](c2ccc(-c3ccc(F)cc3)cc2)[C@@H](CO)N1C(=O)Cc1ccccc1	inactive
CSCCC(NC(N)=O)C(=O)NCC1CCCCC1 (stereo not given)	inactive
CC(C)NC(=O)N1[C@H](C#N)[C@@H](c2ccc(-c3ccc(F)cc3)cc2)[C@@H]1CO	inactive
N#Cc1nc(-c2ccco2)oc1NCCCn1ccnc1	inactive
COc1ccccc1NS(=O)(=O)c1cccc(NC(=O)c2ccc3ccccc3n2)c1	inactive
CC1CCN(c2ncnc3c2cnn3Cc2ccc(Cl)cc2)CC1	inactive
O=S(=O)(NCC1CCN(S(=O)(=O)c2ccccc2)CC1)c1ccccc1	inactive
C[C@@H]1CN([C@H](C)CO)C(=O)c2cccc(NC(=O)Nc3ccc(F)cc3)c2O[C@H]1CN(C)Cc1ccccc1	inactive
COc1cccc(NC(=O)N(C)C[C@H]2Oc3ncc(C#Cc4ccc(F)cc4)cc3C(=O)N([C@@H](C)CO)C[C@@H]2C)c1	inactive

###

procedureSummary: rescue of simvastatin-induced ATP loss – cell-based, C2C12 myotubes, ATP luminescence, cherry pick, dose response (AID 624405);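 further: myotubes are challenged with simvastatin at 10 µM to lower ATP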
protocolConditions: 48 h, scaled: DMSO wells 0, geranylgeraniol wells 100; series mostly up to 19.5 µM
About 250 (13%) of roughly 1,900 compounds were called active. Roughly 4% stayed inconclusive and do not appear here. Only a sample is shown. Entries with a potency or affinity are not part of this list.
metric: outcome

smilesEntry	metric	resultValue
C[C@@H]1CCCCO[C@@H](CN(C)C(=O)Nc2ccc(C(F)(F)F)cc2)[C@H](C)CN([C@@H](C)CO)C(=O)c2cc(NC(=O)c3ccccc3)ccc2O1	outcome	inactive
C[C@H](CO)N1C[C@H](C)[C@@H](CN(C)S(=O)(=O)c2cccs2)OCCCC[C@H](C)Oc2ccc(NC(=O)Nc3ccc(F)cc3)cc2C1=O	outcome	inactive
Cc1ccc(-c2nc3ccccc3[nH]2)cc1NC(=O)c1ccco1	outcome	inactive
C[C@@H]1CN([C@H](C)CO)C(=O)c2cccc(NS(=O)(=O)c3cccs3)c2O[C@@H]1CN(C)S(=O)(=O)c1cccs1	outcome	inactive

Provenance of the data: PubChem BioAssay AID624405
